experimental-system: T1, cynomolgus monkey TG2 (cynomolgus monkey, UniProt A0A2K5VXI8 1-687)
T1 construct: Bought recombinant protein; also called cynomogulus monkey TG2; cyano TG2
T1 sequence: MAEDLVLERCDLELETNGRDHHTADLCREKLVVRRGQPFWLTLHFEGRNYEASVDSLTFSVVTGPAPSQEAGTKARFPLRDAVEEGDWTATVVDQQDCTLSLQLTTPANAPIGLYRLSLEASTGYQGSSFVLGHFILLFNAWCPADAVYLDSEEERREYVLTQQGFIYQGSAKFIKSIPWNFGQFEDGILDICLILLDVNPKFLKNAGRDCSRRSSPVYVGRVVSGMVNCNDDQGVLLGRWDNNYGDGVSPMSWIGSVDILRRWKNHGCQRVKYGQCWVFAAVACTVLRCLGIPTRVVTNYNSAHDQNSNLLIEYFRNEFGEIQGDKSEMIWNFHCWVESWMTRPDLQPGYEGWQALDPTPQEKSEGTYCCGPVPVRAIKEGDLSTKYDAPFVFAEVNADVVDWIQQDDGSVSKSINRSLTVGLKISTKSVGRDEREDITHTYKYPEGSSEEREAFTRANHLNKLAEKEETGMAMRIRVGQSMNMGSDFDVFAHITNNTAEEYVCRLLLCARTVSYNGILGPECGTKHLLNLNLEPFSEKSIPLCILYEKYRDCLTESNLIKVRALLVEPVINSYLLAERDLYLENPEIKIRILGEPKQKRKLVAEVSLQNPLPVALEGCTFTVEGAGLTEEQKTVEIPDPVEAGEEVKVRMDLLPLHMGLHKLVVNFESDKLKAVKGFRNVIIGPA
test-description: SPR (Biacore T200), antibody captured on anti-human IgG1 Fc chip, TG2 injected; calcium condition not marked in the row
property: koff (s⁻¹)
The response must be a number in s⁻¹ with no trailing unit.

So what's the measured koff for this one? hAB004 (hAB001AE) humanised AB1 antibody (antibody, V domains shown, they were captured by anti-human IgG1 (Fc); also called Heavy Chain version RHA with Light Chain version RKE) VH: EVQLLESGGGLVQPGGSLRLSCAASGFTFSSSAMSWVRQAPGKGLEWVSTISVGGGKTYYPDSVKGRFTISRDNSKNTLYLQMNSLRAEDTAVYYCAKLISLYWGQGTLVTVSS VL: EIVLTQSPSSLSASVGDRVTITCKASQDINSYLTWYQQKPGKAPKLLIYRTNRLFDGVPSRFSGSGSGTDFFFTISSLQPEDFGTYYCLQYDDFPYTFGGGTKLEIK
1.8e-05

Same for hBB001BB humanised BB7 antibody (antibody, V domains shown, BB is read as heavy chain hBB001HB (BB7_RHB) with kappa chain hBB001KB (BB7_RKB)) VH: EVQLLESGGGLVQPGGSLRLSCAASGIIFSSSAMSWVRQAPGKGLEWVATISSGGRSTYYPDSVKGRFTVSRDSSKNTLYLQMNSLRAEDTAVYYCAKLISPYWGQGTLVTVSS VL: DIKMTQSPSSLSASVGDRVTITCKASQDINSYLTWFQQKPGKAPKTLIYLTNRLMDGVPSRFSGSGSGQEFLLTISSLQPEDFATYYCLQYVDFPYTFGQGTKVEIK
3.7e-05

Same for hAB005 (hAB001AJ) humanised AB1 antibody (antibody, V domains shown, captured by anti-human IgG1 (Fc); also called Heavy Chain version RHA with Light Chain version RKJ) VH: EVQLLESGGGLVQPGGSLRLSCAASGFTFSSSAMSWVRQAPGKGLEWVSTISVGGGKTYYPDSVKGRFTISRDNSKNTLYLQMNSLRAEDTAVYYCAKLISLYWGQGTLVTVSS VL: DIQMTQSPSSLSASVGDRVTITCKASQDINSYLTWFQQKPGKAPKSLIYRTNRLFDGVPSRFSGSGSGTDFFLTISSLQPEDFATYYCLQYDDFPYTFGQGTKVEIK
3.4e-05
